# Subject of test: T1, purified recombinant IFNAR-1 extracellular fragment (human, UniProt P17181 28-436)
# T1 construct: extracellular domain; also called soluble IFNAR-1; soluble IFNAR
# T1 sequence (looked up): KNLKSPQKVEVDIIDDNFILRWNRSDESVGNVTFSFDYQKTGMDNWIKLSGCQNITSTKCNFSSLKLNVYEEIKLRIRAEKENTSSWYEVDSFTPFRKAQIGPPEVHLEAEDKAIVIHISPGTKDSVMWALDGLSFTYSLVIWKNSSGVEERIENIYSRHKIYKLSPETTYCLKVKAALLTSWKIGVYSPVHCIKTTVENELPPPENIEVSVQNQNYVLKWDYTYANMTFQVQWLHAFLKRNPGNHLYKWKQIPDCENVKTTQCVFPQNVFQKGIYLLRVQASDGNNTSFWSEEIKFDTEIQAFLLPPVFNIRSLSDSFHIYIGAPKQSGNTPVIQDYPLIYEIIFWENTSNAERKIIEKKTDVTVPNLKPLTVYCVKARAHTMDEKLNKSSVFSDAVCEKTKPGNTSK
# Test description: Biacore, antibody on immobilized soluble IFNAR-1, maximal response, mean of four
Measurement name: % response relative to H3K1 (%)
Only the number, expressed in %, is required.

H3K1 (IgG4) (antibody, V domains shown, also called H3K1 standard; humanized anti-IFNAR-1 mAb H3K1) VH: EVQLVESGGGLVQPGGSLRLSCAFSGFTLSTSGMGIGWVRQAPGKGLEWVAHIWWDDDKYYNPSLKSRFTISRDTSKNTVYLQMNSLRAEDTAVYYCARNYYPYDAWFDYWGQGTLVTVS VL: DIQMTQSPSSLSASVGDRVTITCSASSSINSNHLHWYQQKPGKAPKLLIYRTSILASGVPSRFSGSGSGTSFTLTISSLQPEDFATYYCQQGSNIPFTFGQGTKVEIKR : 100
M3 heavy chain with K1-C light chain (antibody, human IgG4, V domains shown, also called M3 K1-C) VH: EVQLLESGGGLVQPGGSLRLSCAFSGFTLSTSGMGIGWVRQAPGKGLEWVAHIWWDDDKYYNPSLKSRFTISRDTSKNTVYLQMNSLRAEDTAVYYCARNYYPYDAWFDYWGQGTLVTVS VL: DIQMTQSPSSLSASVGDRVTITCSASTSINSNHLHWYQQKPGKAPKLLIYRTSILASGVPSRFSGSGSGTSFTLTISSLQPEDFATYYCQQGSNIPFTFGQGTKVEIKR : 100
DI M3-B heavy chain with K1-C light chain (Example 3) (antibody, V domains shown, also called DIM3-B K1-C; DI M3-B K1-C) VH: EVQLLESGGGLVQPGGSLRLSCAASGFTMSTSGMGIGWIRQTPGKGLEWVAHIWWDDDKYYNPSLKARFTISRDTSKNTLYLQMNSLRAEDTAVYYCARNYYPYDAWFDYWGQGTLVTVS VL: DIQMTQSPSSLSASVGDRVTITCSASTSINSNHLHWYQQKPGKAPKLLIYRTSILASGVPSRFSGSGSGTSFTLTISSLQPEDFATYYCQQGSNIPFTFGQGTKVEIKR : 100
M3K1 (antibody, V domains shown, also called heavy chain M3 with light chain K1) VH: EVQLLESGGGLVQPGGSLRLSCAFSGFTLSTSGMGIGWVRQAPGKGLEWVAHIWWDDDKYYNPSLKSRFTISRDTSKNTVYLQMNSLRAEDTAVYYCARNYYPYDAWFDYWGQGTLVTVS VL: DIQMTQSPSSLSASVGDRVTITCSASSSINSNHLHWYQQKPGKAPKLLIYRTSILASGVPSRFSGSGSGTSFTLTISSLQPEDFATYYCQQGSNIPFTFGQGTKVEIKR : 97

Moving on to the next binder.
INPUT: Find the recorded % response relative to H3K1 belonging to DI M3 heavy chain with K1 light chain (antibody, human IgG4, V domains shown, also called DI M3 K1) VH: EVQLLESGGGLVQPGGSLRLSCAASGFTMSTSGMGIGWIRQTPGKGLEWVAHIWWDDDKYYNPSLKSRFTISKDTSKNTLYLQMNSLRAEDTAVYYCARNYYPYDAWFDYWGQGTLVTVS VL: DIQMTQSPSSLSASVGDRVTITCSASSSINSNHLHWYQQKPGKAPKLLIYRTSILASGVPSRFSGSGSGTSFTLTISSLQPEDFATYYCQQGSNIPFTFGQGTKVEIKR and report it.
OUTPUT: 149
